Assay: Estimated solubility in solvents at room temperature (stepwise solvent addition)
Type: physicochemical
Conditions used: 20 °C, organic solvent or mixture, thermodynamic from solid; EtOH, room temperature (RT, 20±3° C.)
Recorded endpoint: solubility

Give solubility for Cc1cc(-c2ccnc(Nc3cnn(C)c3)n2)ccc1CNC(=O)N1CC(OC(C)C)C1.Cl [Compound 2 Type A]
4400 to 5500 µg/mL

----------
Assay: Estimated solubility in solvents at room temperature (stepwise solvent addition)
Type: physicochemical
Conditions used: water, thermodynamic from solid; H2O, room temperature
Recorded endpoint: solubility

Give solubility for Cc1cc(-c2ccnc(Nc3cnn(C)c3)n2)ccc1CNC(=O)N1CC(OC(C)C)C1 [Compound 1 Type A]
< 1100 µg/mL
